molecular target: IgG receptor FcRn large subunit p51 (Homo sapiens, UniProt P55899); assay: Binding affinity to human FcRn at pH 6 by surface plasmon resonance assay
Sequence (P55899 whole entry): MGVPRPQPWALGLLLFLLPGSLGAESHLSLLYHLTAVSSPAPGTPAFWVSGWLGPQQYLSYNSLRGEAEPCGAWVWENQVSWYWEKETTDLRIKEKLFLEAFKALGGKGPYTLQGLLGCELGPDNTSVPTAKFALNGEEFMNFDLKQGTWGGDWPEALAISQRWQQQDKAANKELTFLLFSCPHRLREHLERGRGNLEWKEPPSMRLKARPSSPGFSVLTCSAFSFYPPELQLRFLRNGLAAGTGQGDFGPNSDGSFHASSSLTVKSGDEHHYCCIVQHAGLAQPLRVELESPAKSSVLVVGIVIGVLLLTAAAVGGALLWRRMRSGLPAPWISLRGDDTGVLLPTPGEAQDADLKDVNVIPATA
Bridge positions count the residues as written; N and C are the ends. Peptide text beside a SMILES is read from it.
Each entry below lists one item and its recorded Kd value.
Return type: number; implicit unit µM.

CC[C@H](C)[C@@H]1NC(=O)CNC(=O)CNC(=O)[C@H](Cc2ccccc2)NC(=O)[C@H](Cc2cnc[nH]2)NC(=O)CNC(=O)[C@H]([C@@H](C)O)NC(=O)[C@H](C(C)C)NC(=O)[C@@H](NC(=O)CNC(=O)CNC(=O)CN)CSSC[C@@H](C(=O)N[C@@H](CC(N)=O)C(=O)N[C@@H](Cc2ccc(O)cc2)C(=O)N[C@@H](CCC(N)=O)C(=O)O)NC(=O)[C@H](Cc2ccc(O)cc2)NC1=O (H-GGGCVTGHFGGIYCNYQ-OH; disulfide 4-14) ... 5.2
CC(C)C[C@H](NC(=O)CNC(=O)CNC(=O)[C@H](Cc1ccccc1)NC(=O)[C@H](Cc1cnc[nH]1)NC(=O)CNC(=O)[C@@H](NC(=O)[C@H](CCS)NC(=O)[C@H](Cc1ccccc1)NC(=O)[C@H](CCCNC(=N)N)NC(=O)[C@@H](N)CCC(N)=O)[C@@H](C)O)C(=O)N[C@@H](Cc1ccc(O)cc1)C(=O)N1CCC[C@H]1C(=O)N[C@H](C(=O)N[C@@H](CC(N)=O)C(=O)NCC(=O)N1CCC[C@H]1C(=O)O)C(C)(C)S ... 2.1

# ---- query compound ----
Sample CC(C)C[C@H](NC(=O)CNC(=O)CNC(=O)[C@H](Cc1ccccc1)NC(=O)[C@H](Cc1cnc[nH]1)NC(=O)CNC(=O)[C@@H](NC(=O)[C@H](CS)NC(=O)[C@H](Cc1ccccc1)NC(=O)[C@H](CCCNC(=N)N)NC(=O)[C@@H](N)CCC(N)=O)[C@@H](C)O)C(=O)N[C@@H](Cc1ccc(O)cc1)C(=O)N1CCC[C@H]1C(=O)N[C@@H](CS)C(=O)N[C@@H](CC(N)=O)C(=O)NCC(=O)N1CCC[C@H]1C(=O)O — what was its Kd?
5.1
